Provide the recorded viability, T/C for the entries that follow.
System: HOP-62 complex spheroids with HUVEC/MSC, viability
Test: Anticancer human tumor HOP-62 cell line growth inhibition [RAS];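 further: spheroids exposed to agents for seven days before readout; 100% = DMSO vehicle control viability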
Conditions: second compound 3.16 µM; first compound 0.316 µM; stronger effect = lower value
The reply should contain only the number, in %.

input: Query: viability, T/C; subject: C=CC(=O)Nc1cc(Nc2nccc(-c3cn(C)c4ccccc34)n2)c(OC)cc1N(C)CCN(C)C + C#Cc1c(F)ccc2cc(O)cc(-c3ncc4c(N5CC6CCC(C5)N6)nc(OCC56CCCN5CC(F)C6)nc4c3F)c12
output: 59.2

input: Next record, please: CC(C)NCC(C(=O)N1CCN(c2ncnc3c2C(C)CC3O)CC1)c1ccc(Cl)cc1 (configuration not stated) + C#Cc1c(F)ccc2cc(O)cc(-c3ncc4c(N5CC6CCC(C5)N6)nc(OCC56CCCN5CC(F)C6)nc4c3F)c12
output: 63.9

input: Consider next the compound CCN1CCN(Cc2ccc(Nc3ncc(F)c(-c4cc(F)c5nc(C)n(C(C)C)c5c4)n3)nc2)CC1 + C#Cc1c(F)ccc2cc(O)cc(-c3ncc4c(N5CC6CCC(C5)N6)nc(OCC56CCCN5CC(F)C6)nc4c3F)c12 in the same way.
output: 62.5

input: Queued: Cc1nc(N2CCC3(CC2)COC(C)C3N)c(CO)nc1Sc1ccnc(N)c1Cl (configuration not stated) + C#Cc1c(F)ccc2cc(O)cc(-c3ncc4c(N5CC6CCC(C5)N6)nc(OCC56CCCN5CC(F)C6)nc4c3F)c12
output: 38.1

input: Then C[C@@H](NC(=O)c1ncnc(N)c1Cl)c1ncc(C(=O)Nc2cc(C(F)(F)F)c(Cl)cn2)s1 + C#Cc1c(F)ccc2cc(O)cc(-c3ncc4c(N5CC6CCC(C5)N6)nc(OCC56CCCN5CC(F)C6)nc4c3F)c12 ?
output: 77.1

input: Now the same for NC1c2ccccc2OC12CCN(c1cnc3c(N4CCCc5ncccc54)n[nH]c3n1)CC2 (configuration not stated) + C#Cc1c(F)ccc2cc(O)cc(-c3ncc4c(N5CC6CCC(C5)N6)nc(OCC56CCCN5CC(F)C6)nc4c3F)c12
output: 15.6

input: What do you get for C=CC(=O)N1CCN(c2nc(OCC3CCCN3C)nc3c(F)c(-c4nc(N)cc(C)c4C(F)(F)F)c(Cl)cc23)C(C)C1 (configuration not stated) + C#Cc1c(F)ccc2cc(O)cc(-c3ncc4c(N5CC6CCC(C5)N6)nc(OCC56CCCN5CC(F)C6)nc4c3F)c12 ?
output: 53.9
